Reported values of pIC50 for individual entries
target: Signal transducer and activator of transcription 3 (Homo sapiens, UniProt P40763); assay: Inhibition of IL-6 induced STAT3 transcriptional activity in human HepG2 cells incubated for 1 hr followed by stimulation with IL-6 for 5.5 hrs by luciferase reporter gene assay; format: cell-based
Sequence (P40763 whole entry): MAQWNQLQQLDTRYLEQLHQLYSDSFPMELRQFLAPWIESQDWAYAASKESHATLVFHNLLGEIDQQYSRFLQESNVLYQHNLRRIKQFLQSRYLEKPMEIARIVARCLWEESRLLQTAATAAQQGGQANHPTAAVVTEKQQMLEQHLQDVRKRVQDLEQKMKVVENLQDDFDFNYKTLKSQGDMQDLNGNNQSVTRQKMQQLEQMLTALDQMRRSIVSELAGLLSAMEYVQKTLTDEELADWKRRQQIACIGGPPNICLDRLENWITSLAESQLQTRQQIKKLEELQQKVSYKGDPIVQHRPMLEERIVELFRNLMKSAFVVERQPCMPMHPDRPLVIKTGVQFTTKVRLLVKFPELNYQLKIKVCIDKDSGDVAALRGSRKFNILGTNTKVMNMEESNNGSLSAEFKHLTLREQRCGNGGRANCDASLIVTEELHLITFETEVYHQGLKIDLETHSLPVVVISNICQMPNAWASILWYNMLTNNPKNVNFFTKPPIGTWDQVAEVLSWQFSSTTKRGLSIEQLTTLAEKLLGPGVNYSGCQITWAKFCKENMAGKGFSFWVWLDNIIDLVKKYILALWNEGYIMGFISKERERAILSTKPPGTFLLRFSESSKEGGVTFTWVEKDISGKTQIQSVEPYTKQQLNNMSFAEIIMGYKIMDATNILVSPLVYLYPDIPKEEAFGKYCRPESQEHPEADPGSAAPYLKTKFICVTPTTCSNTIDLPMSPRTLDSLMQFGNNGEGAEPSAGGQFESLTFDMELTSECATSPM
pIC50: −log10 of the molar value.

compound: CCC[C@@H](C)Oc1ccc(C(=O)Nc2ccc3nc(SCC(=O)N[C@@H](C)c4ccccc4)sc3c2)cc1C
valueQualifier: =
pIC50: 6.05
//
compound: COc1ccc([C@H](C)NC(=O)COc2nc3ccc(NC(=O)c4ccc(OC)c(C)c4OC)cc3s2)cc1
valueQualifier: =
pIC50: 5.05
//
compound: CCCC(C)Oc1ccc(C(=O)Nc2ccc3nc(SCC(=O)N[C@@H](C)c4ccccc4)sc3c2)cc1C(F)(F)F (stereo partly drawn)
valueQualifier: <
pIC50: 5.00
//
compound: CCCC(C)Oc1ccc(C(=O)Nc2ccc3nc(SCC(=O)N[C@@H](C)c4ccccc4)sc3c2)c(F)c1F (stereo partly drawn)
valueQualifier: <
pIC50: 5.00
//
compound: CCCC(C)Oc1ccc(C(=O)Nc2ccc3nc(SCC(=O)N[C@@H](C)c4ccccc4)sc3c2)c(F)c1 (stereo partly drawn)
valueQualifier: <
pIC50: 5.00
//
compound: CCCC(C)Oc1ccc(C(=O)Nc2ccc3nc(SCC(=O)N[C@@H](C)c4ccccc4)sc3c2)cc1C (stereo partly drawn)
valueQualifier: =
pIC50: 6.02
//
compound: CCCC(C)Oc1ccc(C(=O)Nc2ccc3nc(SCC(=O)N[C@@H](C)c4ccccc4)sc3c2)c(Cl)c1 (stereo partly drawn)
valueQualifier: =
pIC50: 5.87
//
compound: CCCC(C)Oc1ccc(C(=O)Nc2ccc3nc(SCC(=O)N[C@@H](C)c4ccccc4O)sc3c2)c(OC)c1C (stereo partly drawn)
valueQualifier: =
pIC50: 6.77
//
compound: CCCC(C)Oc1ccc(C(=O)Nc2ccc3nc(SCC(=O)N[C@@H](C)c4ccc(OC)cc4)sc3c2)c(OC)c1C (stereo partly drawn)
valueQualifier: =
pIC50: 7.17
//
compound: CCCC(C)Oc1ccc(C(=O)Nc2ccc3nc(SCC(=O)N[C@@H](C)c4cccc(OC)c4)sc3c2)c(OC)c1C (stereo partly drawn)
valueQualifier: =
pIC50: 6.57
//
compound: CCC[C@H](C)Oc1ccc(C(=O)Nc2ccc3nc(SCC(=O)N[C@@H](C)c4ccccc4)sc3c2)cc1C
valueQualifier: =
pIC50: 5.92
//
compound: COc1ccc([C@H](C)NC(=O)CSc2nc3ccc(NC(=O)c4ccc(OC(C)C)c(C)c4OC)cc3s2)cc1
valueQualifier: =
pIC50: 6.66
//
compound: CCCC(C)Oc1ccc(C(=O)Nc2ccc3nc(SCC(=O)N[C@@H](C)c4ccccc4)sc3c2)cc1C#N (stereo partly drawn)
valueQualifier: <
pIC50: 5.00
//
compound: CCCC(C)Oc1ccc(C(=O)Nc2ccc3nc(SCC(=O)N[C@@H](C)c4ccccc4)sc3c2)cc1Br (stereo partly drawn)
valueQualifier: =
pIC50: 5.67
//
compound: CCCC(C)Oc1ccc(C(=O)Nc2ccc3nc(SCC(=O)N[C@@H](C)c4ccccc4)sc3c2)c(OC)c1C (stereo partly drawn)
valueQualifier: =
pIC50: 6.80
//
compound: CCCC(C)Oc1ccc(C(=O)Nc2ccc3nc(SCC(=O)N[C@@H](C)c4cccc(O)c4)sc3c2)c(OC)c1C (stereo partly drawn)
valueQualifier: =
pIC50: 6.82
//
compound: NS(=O)(=O)c1cccc2c1C(=O)c1cccc(O)c1C2=O
valueQualifier: =
pIC50: 7.01
//
compound: COCCOc1ccc(C(=O)Nc2ccc3nc(SCC(=O)N[C@@H](C)c4ccc(OC)cc4)sc3c2)c(OC)c1C
valueQualifier: =
pIC50: 6.59
//
compound: COc1ccc([C@H](C)NC(=O)CSc2nc3ccc(NC(=O)c4ccc(OCCN5CCOCC5)c(C)c4OC)cc3s2)cc1
valueQualifier: =
pIC50: 6.62
//
compound: CCCC(C)Oc1ccc(C(=O)Nc2ccc3nc(SCC(=O)N[C@@H](C)c4ccccc4)sc3c2)c(OC)c1 (stereo partly drawn)
valueQualifier: =
pIC50: 5.66
//
compound: COc1ccc([C@H](C)NC(=O)CNc2nc3ccc(NC(=O)c4ccc(OC)c(C)c4OC)cc3s2)cc1
valueQualifier: =
pIC50: 5.83
//
compound: CCCC(C)Oc1ccc(C(=O)Nc2ccc3nc(SCC(=O)N[C@@H](C)c4ccccc4)sc3c2)c(C)c1 (stereo partly drawn)
valueQualifier: =
pIC50: 5.57
//
compound: CCCc1cc(C(=O)Nc2ccc3nc(SCC(=O)N[C@@H](C)c4ccccc4)sc3c2)ccc1OC(C)CCC (stereo partly drawn)
valueQualifier: <
pIC50: 5.00

Data origin, for the record: ChEMBL document CHEMBL4813976
